Would you kindly list % inhibition PKCα(h) for each of these molecules?
Molecular target: PKCα(h) (Homo sapiens, UniProt P17252)
Construct: purchased Caliper Life Sciences
Experiment: Other kinases, single-concentration inhibition (Table 3)
Type: biochemical
Settings: 1 μM
Procedure: The Aurora and other kinase assays described here were performed on two Caliper Life Sciences systems, the LC3000 and the Desktop Profiler. These provide data on enzyme activity via measurement of the relative amounts of phosphorylated or unphosphorylated fluorescently labelled substrate peptide at the end of an enzymatic reaction. […] Plates were read in a manner identical to that of the LC3000, and the ratio between substrate and product peaks provided the activity of the enzyme in that well. […]

Challenge: Recorded % inhibition PKCα(h) for NC(=O)[C@H]1[C@H]2C[C@H]3[C@H]1Nc1nc(ncc1F)Nc1cccc(c1)NC(=O)CS[C@@H]3C2 , please?
Response given: 102%

Challenge: Given the molecule CC[C@@H]1C[C@@H]2CCCOc3cccc(c3)Nc3ncc(F)c(n3)N[C@H]2[C@H]1C(N)=O (single isomer, unassigned) , what is its reported % inhibition PKCα(h)?
Response given: 84%

Challenge: Quick one: % inhibition PKCα(h) of C=C[C@@H]1C[C@@H]2/C=C/COc3cccc(c3)Nc3ncc(F)c(n3)N[C@H]2[C@H]1C(N)=O (single isomer, unassigned) ?
Response given: 70%

Challenge: Name the reported % inhibition PKCα(h) value associated with the molecule CC[C@@H]1C[C@@H]2/C=C\COc3cccc(c3)Nc3ncc(F)c(n3)N[C@H]2[C@H]1C(N)=O (single isomer, unassigned)
Response given: 90%

Challenge: Recorded % inhibition PKCα(h) for N#Cc1ccc2cc1NC(=O)CS[C@@H]1C[C@@H]3C[C@H]1[C@@H](Nc1nc(ncc1F)N2)[C@H]3C(N)=O , please?
Response given: 81%

Challenge: % inhibition PKCα(h) lookup needed for NC(=O)[C@H]1[C@H]2C[C@H]3[C@H]1Nc1nc(ncc1F)Nc1cccc(c1)CSS[C@@H]3C2 , thanks.
Response given: 90%

---

biological target: kinases (not incl. Aurora); assay: Kinase inhibition profile (not incl. Aurora); type: biochemical; conditions: at 1 μM; hit means >79% inhibition
Consider the following compounds; for each one, report its Kinase Inhibition Profile (not incl. Aurora) # kinases hit/# kinases tested.

Challenge: Enter reported Kinase Inhibition Profile (not incl. Aurora) # kinases hit/# kinases tested observed with kinases (not incl. Aurora) for CN1CCN(c2ccc3cc2NC(=O)CS[C@@H]2C[C@@H]4C[C@H]2[C@@H](Nc2nc(ncc2F)N3)[C@H]4C(N)=O)CC1 [drawing 222]
Response given: 13/36 at 1 μM

Challenge: Param readout = Kinase Inhibition Profile (not incl. Aurora) # kinases hit/# kinases tested; param system = kinases (not incl. Aurora); param query = NC(=O)[C@H]1[C@H]2C[C@H]3[C@H]1Nc1nc(ncc1F)Nc1cccc(c1)C(=O)CS[C@@H]3C2 [drawing 214] ; response: value
Response given: 2/36 at 1 μM

Challenge: Request - read-out Kinase Inhibition Profile (not incl. Aurora) # kinases hit/# kinases tested | tested on kinases (not incl. Aurora) | compound NC(=O)[C@H]1[C@H]2C[C@H]3[C@H]1Nc1nc(ncc1F)Nc1cccc(c1)[C@H](O)CS[C@@H]3C2
Response given: 0/76 at 1 μM

Challenge: Lab request: please report Kinase Inhibition Profile (not incl. Aurora) # kinases hit/# kinases tested under test system kinases (not incl. Aurora) for CN1CCN(c2ccc3cc2[C@H](O)CS[C@@H]2C[C@@H]4C[C@H]2[C@@H](Nc2nc(ncc2F)N3)[C@H]4C(N)=O)CC1
Response given: 121/267 at 1 μM

Challenge: Give Kinase Inhibition Profile (not incl. Aurora) # kinases hit/# kinases tested (kinases (not incl. Aurora)) of the following compound: C=CC1CC2/C=C/COc3cccc(c3)Nc3ncc(F)c(n3)N[C@H]2[C@H]1C(N)=O (stereo partly shown)
Response given: 0/36

Challenge: API: value(readout= Kinase Inhibition Profile (not incl. Aurora) # kinases hit/# kinases tested, system= kinases (not incl. Aurora), query= NC(=O)[C@H]1[C@@H]2CC3CNC(=O)Nc4cccc(c4)Nc4ncc(F)c(n4)N[C@@H]1[C@@H]3C2 (stereo partly shown) )
Response given: 1/76 at 1 μM

Challenge: Missing value: Kinase Inhibition Profile (not incl. Aurora) # kinases hit/# kinases tested, kinases (not incl. Aurora), entry NC(=O)[C@H]1[C@@H]2CC3CNCc4cccc(c4)Nc4ncc(F)c(n4)N[C@@H]1[C@@H]3C2 (stereo partly shown) . Fill in?
Response given: 1/50 at 1 μM

---

Target or system Aurora B (Homo sapiens); recorded quantity IC50.

Challenge: So what's the measured IC50 for this one? NC(=O)[C@H]1[C@H]2C[C@H]3[C@H]1Nc1nc(ncc1F)Nc1cccc(c1)NC(=O)CN[C@@H]3C2
Response given: 101 to 1000 nM

Challenge: Which measured IC50 value corresponds to CN1CCN(c2ccc3cc2CNC[C@@H]2C[C@@H]4C[C@H]2[C@@H](Nc2nc(ncc2F)N3)[C@H]4C(N)=O)CC1 ?
Response given: 1 to 100 nM

Challenge: Entry under review: CN1CCN(c2ccc3cc2NC(=O)CS[C@@H]2C[C@@H]4C[C@H]2[C@@H](Nc2nc(ncc2F)N3)[C@H]4C(N)=O)CC1 [drawing 222] . Reported IC50?
Response given: 1 to 100 nM

Challenge: Looking for the measured IC50 of NC(=O)[C@H]1[C@H]2C[C@H]3[C@H]1Nc1nc(ncc1F)Nc1cccc(c1)NC(=O)CS[C@@H]3C2 [drawing 221] , can you help?
Response given: 1 to 100 nM

Challenge: Requested field: IC50. Item: NC(=O)[C@H]1[C@H]2C[C@H]3[C@H]1Nc1nc(ncc1F)Nc1cccc(c1)OCCCS[C@@H]3C2
Response given: 1 to 100 nM

---

System: AMPK(r)
Experiment: Other kinases, single-concentration inhibition (Table 3)
Assay type: biochemical, rat
Conditions: 1 μM
Description: The Aurora and other kinase assays described here were performed on two Caliper Life Sciences systems, the LC3000 and the Desktop Profiler. These provide data on enzyme activity via measurement of the relative amounts of phosphorylated or unphosphorylated fluorescently labelled substrate peptide at the end of an enzymatic reaction. […] Plates were read in a manner identical to that of the LC3000, and the ratio between substrate and product peaks provided the activity of the enzyme in that well. […]
experimental.endpoint: % inhibition AMPK(r)

Challenge: Quick one: % inhibition AMPK(r) for CN1CCN(c2ccc3cc2OCCS[C@@H]2C[C@@H]4C[C@H]2[C@@H](Nc2nc(ncc2F)N3)[C@H]4C(N)=O)CC1 ?
Response given: 65%

Challenge: Report % inhibition AMPK(r) for CC[C@@H]1C[C@@H]2CCCOc3cccc(c3)Nc3ncc(F)c(n3)N[C@H]2[C@H]1C(N)=O (single isomer, unassigned) please.
Response given: 58%

Challenge: Given C=C[C@@H]1C[C@@H]2/C=C/COc3cccc(c3)Nc3ncc(F)c(n3)N[C@H]2[C@H]1C(N)=O (single isomer, unassigned) , state its recorded % inhibition AMPK(r).
Response given: 92%

Challenge: Need % inhibition AMPK(r) of NC(=O)[C@H]1[C@H]2C[C@H]3[C@H]1Nc1nc(ncc1F)Nc1cccc(c1)NC(=O)CS[C@@H]3C2 , thanks.
Response given: 71%

Challenge: Could you share which % inhibition AMPK(r) value was measured for CC[C@@H]1C[C@@H]2/C=C\COc3cccc(c3)Nc3ncc(F)c(n3)N[C@H]2[C@H]1C(N)=O (single isomer, unassigned) ?
Response given: 51%

Challenge: Record request: % inhibition AMPK(r) value, item CN1CCN(c2ccc3cc2NC(=O)CS[C@@H]2C[C@@H]4C[C@H]2[C@@H](Nc2nc(ncc2F)N3)[C@H]4C(N)=O)CC1
Response given: 68%

Challenge: So what's the measured % inhibition AMPK(r) for this one? NC(=O)[C@H]1[C@H]2C[C@H]3[C@H]1Nc1nc(ncc1F)Nc1cccc(c1)CSS[C@@H]3C2
Response given: 86%

Challenge: # get_value(readout='% inhibition AMPK(r)', item= NC(=O)[C@H]1[C@H]2C[C@H]3[C@H]1Nc1nc(ncc1F)Nc1cccc(c1)OCCS[C@@H]3C2 )
Response given: 81%

Challenge: Name the reported % inhibition AMPK(r) value associated with the molecule NC(=O)[C@H]1[C@H]2C[C@H]3[C@H]1Nc1nc(ncc1F)Nc1cccc(c1)C(=O)CS[C@@H]3C2
Response given: 97%

Challenge: Would you mind telling me what % inhibition AMPK(r) value was observed for N#Cc1ccc2cc1NC(=O)CS[C@@H]1C[C@@H]3C[C@H]1[C@@H](Nc1nc(ncc1F)N2)[C@H]3C(N)=O ?
Response given: 79%

---

target: JAK2(h) (Homo sapiens, UniProt O60674); construct: purchased Caliper Life Sciences; experiment: Other kinases, single-concentration inhibition (Table 3); assay type: biochemical; conditions: 1 μM
Sequence (O60674 whole entry): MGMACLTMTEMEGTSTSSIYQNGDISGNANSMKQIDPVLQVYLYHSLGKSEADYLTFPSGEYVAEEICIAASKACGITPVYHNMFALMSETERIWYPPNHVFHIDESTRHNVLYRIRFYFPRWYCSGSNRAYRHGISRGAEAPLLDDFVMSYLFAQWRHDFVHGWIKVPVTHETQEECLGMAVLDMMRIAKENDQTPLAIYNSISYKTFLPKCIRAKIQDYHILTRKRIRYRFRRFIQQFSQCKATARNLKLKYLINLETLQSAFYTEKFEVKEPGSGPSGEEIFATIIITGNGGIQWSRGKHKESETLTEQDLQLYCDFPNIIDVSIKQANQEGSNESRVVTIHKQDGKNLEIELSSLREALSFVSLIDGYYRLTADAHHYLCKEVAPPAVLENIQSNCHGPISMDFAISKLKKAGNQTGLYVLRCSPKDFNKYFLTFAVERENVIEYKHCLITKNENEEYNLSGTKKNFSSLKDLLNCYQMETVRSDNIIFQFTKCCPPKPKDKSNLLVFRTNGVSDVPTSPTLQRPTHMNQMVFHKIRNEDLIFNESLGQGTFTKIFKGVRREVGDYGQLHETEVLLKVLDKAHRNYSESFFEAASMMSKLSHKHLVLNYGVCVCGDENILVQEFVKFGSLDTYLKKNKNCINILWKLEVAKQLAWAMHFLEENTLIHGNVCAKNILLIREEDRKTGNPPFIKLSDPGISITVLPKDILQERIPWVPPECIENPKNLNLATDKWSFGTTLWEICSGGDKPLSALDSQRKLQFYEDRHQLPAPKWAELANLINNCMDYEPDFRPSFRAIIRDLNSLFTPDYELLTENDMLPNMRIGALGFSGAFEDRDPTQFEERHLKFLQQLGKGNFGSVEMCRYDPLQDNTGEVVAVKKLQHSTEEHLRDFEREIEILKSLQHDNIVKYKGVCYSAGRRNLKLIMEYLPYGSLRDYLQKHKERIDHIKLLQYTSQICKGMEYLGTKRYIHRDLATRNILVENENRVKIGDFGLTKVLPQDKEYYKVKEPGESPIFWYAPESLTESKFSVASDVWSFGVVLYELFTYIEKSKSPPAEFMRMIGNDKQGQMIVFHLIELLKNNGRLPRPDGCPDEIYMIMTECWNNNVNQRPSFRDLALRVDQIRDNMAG
Field: % inhibition JAK2(h). Provide a value for each of the compounds that follow.
Report only the number, with the unit % understood.

Challenge: Which % inhibition JAK2(h) value is on record for NC(=O)[C@H]1[C@H]2C[C@H]3[C@H]1Nc1nc(ncc1F)Nc1cccc(c1)CSS[C@@H]3C2 ?
Response given: 95

Challenge: Quick one: % inhibition JAK2(h) for NC(=O)[C@H]1[C@H]2C[C@H]3[C@H]1Nc1nc(ncc1F)Nc1cccc(c1)C(=O)CS[C@@H]3C2 ?
Response given: 121

Challenge: Any idea what its % inhibition JAK2(h) is? The compound is N#Cc1ccc2cc1NC(=O)CS[C@@H]1C[C@@H]3C[C@H]1[C@@H](Nc1nc(ncc1F)N2)[C@H]3C(N)=O
Response given: 16

Challenge: Consider the compound shown here: CC[C@@H]1C[C@@H]2/C=C\COc3cccc(c3)Nc3ncc(F)c(n3)N[C@H]2[C@H]1C(N)=O (single isomer, unassigned) What is its recorded % inhibition JAK2(h)?
Response given: 108

The reported measurements were obtained from patent US8815872B2.
